B1: glmS ribozyme (parent)
chain: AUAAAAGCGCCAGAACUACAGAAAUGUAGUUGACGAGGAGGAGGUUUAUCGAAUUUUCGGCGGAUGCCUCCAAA

variants of: B1; assay: self-cleavage kobs at 10000 uM GlcN6P; higher = faster cleavage; RNA array; conditions: with glucosamine-6-phosphate
Variants at the floor of the assay were thinned out.
property.measured: self-cleavage kobs at 10000 uM GlcN6P

INSERT INTO results (mutations, result) VALUES
  ('G38C U45C U49A A53U', '< 1e-05 s⁻¹'),
  ('C11U U31G U49A G62A', '< 1e-05 s⁻¹'),
  ('U45A U55A A64G', '0.0175 s⁻¹'),
  ('G40U G51A', '< 1e-05 s⁻¹'),
  ('U30C A42G', '0.0004 s⁻¹'),
  ('A42C C50U U69A', '< 1e-05 s⁻¹'),
  ('G44C G51A', '< 1e-05 s⁻¹'),
  ('A15U A33U', '5.13e-05 s⁻¹'),
  ('G13C U56G', '8.26e-05 s⁻¹'),
  ('C11A G41A C50G G59U', '< 1e-05 s⁻¹'),
  ('G44A G63C', '< 1e-05 s⁻¹'),
  ('A48C C67A', '0.00014 s⁻¹'),
  ('A36C G66C', '< 1e-05 s⁻¹'),
  ('A14G U69G', '0.000113 s⁻¹'),
  ('A6U C58U', '< 1e-05 s⁻¹'),
  ('G37U C58G', '< 1e-05 s⁻¹'),
  ('G41U U46C', '8.33e-05 s⁻¹'),
  ('A36U U57C', '< 1e-05 s⁻¹'),
  ('G9C G59C G63U', '< 1e-05 s⁻¹'),
  ('A15U A53U', '0.0042 s⁻¹'),
  ('G41C C58A C61U', '< 1e-05 s⁻¹'),
  ('G59U C70U', '9.36e-05 s⁻¹'),
  ('C10G A14U', '< 1e-05 s⁻¹'),
  ('U30A A36U C70G', '3.78e-05 s⁻¹'),
  ('U30G G37U', '< 1e-05 s⁻¹'),
  ('G41C U56G', '8.29e-05 s⁻¹'),
  ('A12U U30C A53C', '0.00132 s⁻¹'),
  ('G41U A48U', '4.45e-05 s⁻¹'),
  ('A39C G41A', '< 1e-05 s⁻¹'),
  ('G44U C58U C71U', '< 1e-05 s⁻¹'),
  ('A42G U46G', '0.0115 s⁻¹'),
  ('G38A G51U', '< 1e-05 s⁻¹'),
  ('C10U A42G', '3.17e-05 s⁻¹'),
  ('G38A G43A', '< 1e-05 s⁻¹'),
  ('U46C U69C', '0.000936 s⁻¹'),
  ('A14C C70A', '0.000102 s⁻¹'),
  ('G7C U30G G35U G37U U57C C71G', '< 1e-05 s⁻¹'),
  ('A6G U31A', '0.000258 s⁻¹'),
  ('A14U U31A', '0.028 s⁻¹'),
  ('A6C G40U C61A', '< 1e-05 s⁻¹'),
  ('U65G C67A C71G', '4.47e-05 s⁻¹'),
  ('A14U G32U C71A', '7.15e-05 s⁻¹'),
  ('G38A A48U', '< 1e-05 s⁻¹'),
  ('U46G C61A', '< 1e-05 s⁻¹'),
  ('G29A U56A A64G', '0.00195 s⁻¹'),
  ('G38C A52C', '< 1e-05 s⁻¹');
